# Emax annotations
- system: MT2 receptor (Homo sapiens, UniProt P49286)
- Sequence (P49286 whole entry): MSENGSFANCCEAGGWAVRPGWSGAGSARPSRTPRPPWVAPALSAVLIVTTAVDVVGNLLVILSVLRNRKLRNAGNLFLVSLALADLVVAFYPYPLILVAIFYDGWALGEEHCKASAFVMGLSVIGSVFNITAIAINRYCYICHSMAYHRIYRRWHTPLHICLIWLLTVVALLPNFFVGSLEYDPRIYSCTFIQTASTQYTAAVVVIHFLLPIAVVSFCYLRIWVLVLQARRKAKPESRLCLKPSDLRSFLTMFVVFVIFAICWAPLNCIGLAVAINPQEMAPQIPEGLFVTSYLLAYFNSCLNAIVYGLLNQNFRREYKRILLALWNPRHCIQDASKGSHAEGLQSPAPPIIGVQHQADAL
- test_description: FLIPR Ca2+ mobilization assay, MT2
- Assay type: cell-based
- Parameters: expressed in transfected cells; host or cells: COS-7 (monkey kidney fibroblast)
- details: read-out: % Response of 2-IMT
All answers are understood in %, so give the number only.

Prompt line: # assay system MT2 receptor (Homo sapiens, UniProt P49286): give Emax of COc1ccc2c(=O)n(C)ccc2c1OCCCc1ccccc1 [IS008]
Response line: 57.6

New cases:
Prompt line: # assay system MT2 receptor (Homo sapiens, UniProt P49286): give Emax of COc1ccc2c(=O)n(C)ccc2c1OCc1ccc(C)cc1 [IS529]
Response line: 53.6

Prompt line: # assay system MT2 receptor (Homo sapiens, UniProt P49286): give Emax of COc1cc(COc2cc3ccn(C)c(=O)c3cc2OC)cc(OC)c1 [IS042]
Response line: 84.5

Prompt line: # assay system MT2 receptor (Homo sapiens, UniProt P49286): give Emax of COc1cc2c(=O)n(C)ccc2cc1OCCCc1ccccc1 [IS017]
Response line: 107

Prompt line: # assay system MT2 receptor (Homo sapiens, UniProt P49286): give Emax of COc1cc2ccn(C)c(=O)c2cc1OCCCI [IS101]
Response line: 65.8

Prompt line: # assay system MT2 receptor (Homo sapiens, UniProt P49286): give Emax of COc1cc2c(=O)n(C)ccc2cc1OCc1ccccc1 [IS016]
Response line: 145

Prompt line: # assay system MT2 receptor (Homo sapiens, UniProt P49286): give Emax of COc1ccc2c(=O)n(C)ccc2c1OCc1ccc(Br)cc1 [IS009]
Response line: 37.4

Prompt line: # assay system MT2 receptor (Homo sapiens, UniProt P49286): give Emax of COc1cc2ccn(C)c(=O)c2cc1OCCCCCl [IS098]
Response line: 44.7

Prompt line: # assay system MT2 receptor (Homo sapiens, UniProt P49286): give Emax of COc1ccc2c(=O)n(C)ccc2c1OCc1ccccc1 [IS005]
Response line: 62.9

###

# pIC50 annotations
- system: MT2 receptor (Homo sapiens, UniProt P49286)
- test_description: Competitive [3H]melatonin binding assay, MT2
- Set-up: expressed in transfected cells
- details: displacement of 1 nM [3H]melatonin; unit inferred; read-out: Binding Assay MT2 IC50
Please keep in mind that pIC50 is minus log10 of the molar concentration; only the number is needed.

Prompt line: Respond only with pIC50 recorded for COc1cccc(COc2cc3c(=O)n(C)ccc3cc2OC)c1
Response line: 6.84

New cases:
Prompt line: Respond only with pIC50 recorded for COc1cccc(COc2c(OC)ccc3c(=O)n(C)ccc23)c1
Response line: 6.97

###

- system: MT1 receptor (Homo sapiens, UniProt P48039)
- Sequence (P48039 whole entry): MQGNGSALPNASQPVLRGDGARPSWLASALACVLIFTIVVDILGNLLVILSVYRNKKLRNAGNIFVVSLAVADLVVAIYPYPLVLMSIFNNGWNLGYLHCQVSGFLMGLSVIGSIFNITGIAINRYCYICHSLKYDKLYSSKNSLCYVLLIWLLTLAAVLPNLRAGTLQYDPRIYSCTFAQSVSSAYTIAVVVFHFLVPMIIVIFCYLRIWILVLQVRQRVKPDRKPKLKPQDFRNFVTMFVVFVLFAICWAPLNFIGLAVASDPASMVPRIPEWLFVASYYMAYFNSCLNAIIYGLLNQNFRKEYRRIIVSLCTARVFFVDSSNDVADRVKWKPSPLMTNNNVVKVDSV
- test_description: FLIPR Ca2+ mobilization assay, MT1
- Assay type: cell-based
- Design: expressed in transfected cells; host or cells: COS-7 (monkey kidney fibroblast)
- details: Table 1; MT1 in COS-7 cells with chimeric G protein; log value, negative; NSR = no significant response
- Procedure: 1. FLIPR Ca^2+ Mobilization Assay This assay indicates the ability of the novel compounds to activate MT1 and MT2 receptors by measuring downstream events of the activated receptor, in this case intracellular calcium mobilization. 1. Intracellular Ca^2+ Mobilization Assay Using Fluorometric Imaging Plate Reader (FLIPR®) […] Then the intracellular Ca^2+ mobilization assays using the Fluorometric Imaging Plate Reader (FLIPR®) were performed as described above.
property_name: Log(EC50) ± SEM

Example cases with answers are listed next.
Prompt line: Respond only with Log(EC50) ± SEM recorded for COc1cccc(COc2cc3ccn(C)c(=O)c3cc2OC)c1
Response line: −6.79 ± 0.17

Prompt line: Respond only with Log(EC50) ± SEM recorded for COc1cc(COc2cc3c(=O)n(C)ccc3cc2OC)cc(OC)c1
Response line: NSR

Prompt line: Respond only with Log(EC50) ± SEM recorded for COc1cc2ccn(C)c(=O)c2cc1OCCCI
Response line: NSR

Prompt line: Respond only with Log(EC50) ± SEM recorded for C=CCOc1c(OC)ccc2c(=O)n(C)ccc12
Response line: NSR

Prompt line: Respond only with Log(EC50) ± SEM recorded for COc1cc(COc2c(OC)ccc3c(=O)n(C)ccc23)cc(OC)c1
Response line: −5.15 ± 0.51

Prompt line: Respond only with Log(EC50) ± SEM recorded for COc1cc2ccn(C)c(=O)c2cc1OCc1ccccc1
Response line: NSR

Prompt line: Respond only with Log(EC50) ± SEM recorded for Cn1ccc2cc(OC(=O)c3ccccc3)c(OC(=O)c3ccccc3)cc2c1=O
Response line: NSR

Prompt line: Respond only with Log(EC50) ± SEM recorded for COc1cc2ccn(C)c(=O)c2cc1OCCCCCl
Response line: NSR

New cases:
Prompt line: Respond only with Log(EC50) ± SEM recorded for COc1ccc2c(=O)n(C)ccc2c1OCc1ccc(Br)cc1
Response line: NSR

Prompt line: Respond only with Log(EC50) ± SEM recorded for COc1ccc2c(=O)n(C)ccc2c1OCCCc1ccccc1
Response line: NSR

Prompt line: Respond only with Log(EC50) ± SEM recorded for COc1cc2ccn(C)c(=O)c2cc1OCCCc1ccccc1
Response line: −5.22 ± 1.28

###

- Tested on: MT2/293
- test_description: MTT cytotoxicity assay, MT2/293 cells
- Assay type: cell-based
- details: percentage of untreated control cells
# MTT Assay MT2/293 % Viability ± SEM annotations
All answers are understood in %, so give the number only.

Example cases with answers are listed next.
Prompt line: Respond only with MTT Assay MT2/293 % Viability ± SEM recorded for COc1cccc(COc2cc3ccn(C)c(=O)c3cc2OC)c1
Response line: 112.5

Prompt line: Respond only with MTT Assay MT2/293 % Viability ± SEM recorded for Cn1ccc2cc(OC(=O)c3ccccc3)c(OC(=O)c3ccccc3)cc2c1=O
Response line: 117.6

Prompt line: Respond only with MTT Assay MT2/293 % Viability ± SEM recorded for COc1cc(COc2c(OC)ccc3c(=O)n(C)ccc23)cc(OC)c1
Response line: 42.4

Prompt line: Respond only with MTT Assay MT2/293 % Viability ± SEM recorded for COc1ccc2c(=O)n(C)ccc2c1OCc1ccc(C)cc1
Response line: 48.5

New cases:
Prompt line: Respond only with MTT Assay MT2/293 % Viability ± SEM recorded for COc1ccc2[nH]c(I)c(CCNC(C)=O)c2c1 [Compound 2-IMT, 2-iodomelatonin, reference compound]
Response line: 119.5

###

- system: MT1 receptor (Homo sapiens, UniProt P48039)
- test_description: FLIPR Ca2+ mobilization assay, MT1
- Format: cell-based
- Design: expressed in transfected cells; host or cells: COS-7 (monkey kidney fibroblast)
- details: Table 1; MT1 in COS-7 cells with chimeric G protein; log value, negative; NSR = no significant response; read-out: Log(EC50) ± SEM (converted)
# EC50 annotations
All answers are understood in nM, so give the number only.

Example cases with answers are listed next.
Prompt line: Respond only with EC50 recorded for COc1cc2c(=O)n(C)ccc2cc1O [IS001]
Response line: 1580

Prompt line: Respond only with EC50 recorded for COc1cc2ccn(C)c(=O)c2cc1O [IS002]
Response line: 1740

Prompt line: Respond only with EC50 recorded for COc1cccc(COc2cc3c(=O)n(C)ccc3cc2OC)c1 [IS521]
Response line: 1860

Prompt line: Respond only with EC50 recorded for COc1cc(COc2cc3ccn(C)c(=O)c3cc2OC)cc(OC)c1 [IS042]
Response line: 12

# context switch: different compound, same EC50
Prompt line: Respond only with EC50 recorded for COc1cc2c(=O)n(C)ccc2cc1OCc1ccccc1 [IS016]
Response line: 1350

###

- system: MT1 receptor (Homo sapiens, UniProt P48039)
- test_description: FLIPR Ca2+ mobilization assay, MT1
- Assay type: cell-based
- Parameters: expressed in transfected cells; host or cells: COS-7 (monkey kidney fibroblast)
- details: Table 1; MT1 in COS-7 cells with chimeric G protein; log value, negative; NSR = no significant response
property_name: Log(EC50) ± SEM

Example cases with answers are listed next.
Prompt line: Respond only with Log(EC50) ± SEM recorded for COc1ccc(C(=O)COc2c(OC)ccc3c(=O)n(C)ccc23)cc1
Response line: NSR

Prompt line: Respond only with Log(EC50) ± SEM recorded for Cn1ccc2ccc(O)c(O)c2c1=O
Response line: NSR

Prompt line: Respond only with Log(EC50) ± SEM recorded for COc1ccc2c(=O)n(C)ccc2c1OCc1ccc(C)cc1
Response line: NSR

Prompt line: Respond only with Log(EC50) ± SEM recorded for COc1cc2ccn(C)c(=O)c2cc1OCc1ccc(C(C)(C)C)cc1
Response line: −5.35 ± 1.32

Prompt line: Respond only with Log(EC50) ± SEM recorded for COc1cc2c(=O)n(C)ccc2cc1OCCCc1ccccc1
Response line: NSR

Prompt line: Respond only with Log(EC50) ± SEM recorded for COc1ccc2c(=O)n(C)ccc2c1OCc1ccc(C(C)(C)C)cc1
Response line: NSR

Prompt line: Respond only with Log(EC50) ± SEM recorded for COc1cccc(COc2c(OC)ccc3c(=O)n(C)ccc23)c1
Response line: NSR

# context switch: different compound, same Log(EC50) ± SEM
Prompt line: Respond only with Log(EC50) ± SEM recorded for COc1ccc(O)c2c(=O)n(C)ccc12
Response line: −5.98 ± 0.04
